Values from PubChem BioAssay AID1159580

method: chemical genetic growth profiling, strain panel (AID 1159580);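 note: tested at 20 µM; growth read once vehicle control cultures reached saturation at 30 °C; 1 = growth at the plate median or of vehicle wells; lower values mean less growth of the strain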
condition_set: S. cerevisiae deletion strains, growth OD, locus YNR049C, strain mso1, active compounds read low
The whole screen tested about 5,500 compounds, of which about 2,000 (36%) were called active. Inconclusive results (about 18%) are left out. The list shows a part of the results.
test_readout: normalized growth
Respond numerically, and do not add a unit to the figure.

Task: What value of normalized growth has been recorded for this entry: `CCCCCCCCCCCCCc1ccco1`
Result: 0.989

Task: What value of normalized growth has been recorded for this entry: `CC[C@@]1(O)C[C@H](O[C@H]2C[C@H](N(C)C)[C@H](O)[C@H](C)O2)c2c(cc3c(c2O)C(=O)c2c(O)ccc(O)c2C3=O)[C@H]1C(=O)OC`
Result: 0.926

Task: What value of normalized growth has been recorded for this entry: `Clc1ccc(C(c2ccc(Cl)cc2)C(Cl)(Cl)Cl)cc1`
Result: 1.01

Task: What value of normalized growth has been recorded for this entry: COc1cc([C@@H]2c3cc4c(cc3[C@@H](O)C3COC(=O)C32)OCO4)cc(OC)c1O (some centres not stated)
Result: 0.986

Task: What value of normalized growth has been recorded for this entry: `COc1ccc(C(c2ccc(OC)cc2)C(Cl)(Cl)Cl)cc1`
Result: 1.01

Task: What value of normalized growth has been recorded for this entry: `COc1ccc(C(=O)O)cc1OC`
Result: 0.987

Task: What value of normalized growth has been recorded for this entry: `Nc1ncn[nH]1`
Result: 1.02

Task: What value of normalized growth has been recorded for this entry: `C#CCCCCCCCCCCCc1ccco1`
Result: 0.996

Task: What value of normalized growth has been recorded for this entry: `C#CCN(C)Cc1ccccc1`
Result: 0.961

Task: What value of normalized growth has been recorded for this entry: `CN1CC(=O)N=C1N`
Result: 1.01

Task: What value of normalized growth has been recorded for this entry: `COc1ccc2c(c1)OC/C(=C/c1ccc(OC)c(OC)c1)C2=O`
Result: 0.978

Task: What value of normalized growth has been recorded for this entry: O=C(/C=C/c1ccc(O)c(O)c1)OC(Cc1ccc(O)c(O)c1)C(=O)O (configuration not stated)
Result: 1.02

---

method: chemical genetic growth profiling, strain panel (AID 1159580);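 note: tested at 20 µM; growth read once vehicle control cultures reached saturation at 30 °C; 1 = growth at the plate median or of vehicle wells; lower values mean less growth of the strain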
condition_set: S. cerevisiae deletion strains, growth OD, locus YFR019W, strain FAB1, active compounds read low
Among all 5,500 compounds or so, about 2,000 (36%) were called active. Inconclusive results (about 18%) are left out. The list shows a part of the results.
Field: label. Allowed values: label 1 (normalized growth < 0.9) or label 0 (normalized growth >= 0.9).

Task: Hello, I'm reviewing records and need to know if normalized growth of `Cc1cc(C)cc(Sc2ccc3nnc(-c4ccccc4)n3n2)c1` is below 0.9. Could you check?
Result: label 0

Task: Hello, I'm reviewing records and need to know if normalized growth of `O=C(Nc1cccc(C(F)(F)F)c1)c1cncc(C#Cc2ccccc2)c1` is below 0.9. Could you check?
Result: label 1

Task: Hello, I'm reviewing records and need to know if normalized growth of `CC(=O)/C(C#N)=N\Nc1ccc(F)cc1` is below 0.9. Could you check?
Result: label 1

Task: Hello, I'm reviewing records and need to know if normalized growth of CCOC(=O)C1C(c2c(F)cccc2Cl)C(C(=O)OCC)C(O)(C(F)(F)F)NC1(O)C(F)(F)F (stereo not given) is below 0.9. Could you check?
Result: label 0

Task: Hello, I'm reviewing records and need to know if normalized growth of `CCCN(CCC)C(=S)NC(=O)c1cccc([N+](=O)[O-])c1` is below 0.9. Could you check?
Result: label 0

Task: Hello, I'm reviewing records and need to know if normalized growth of `Cc1ccc(S(=O)(=O)NC(=O)Nc2ccc(Sc3ccccc3)nc2Sc2ccccc2)cc1` is below 0.9. Could you check?
Result: label 0

Task: Hello, I'm reviewing records and need to know if normalized growth of `Cc1cc(C(=O)NNS(=O)(=O)c2ccc(F)c(Cl)c2)nn1-c1c(Cl)cc(Cl)cc1Cl` is below 0.9. Could you check?
Result: label 0
